- Run Description: Half life in beagle dog at 0.1 mg/kg, po
- Assay type: ADME, organism-based, Canis lupus familiaris
- Experimental Context: in vivo
Measured Quantity: half-life (h)
Kindly answer with a numeric value in h, unit omitted.

Entry Cn1ncnc1[C@H]1c2n[nH]c(=O)c3cc(F)cc(c23)N[C@@H]1c1ccc(F)cc1 [TALAZOPARIB] : reported half-life = ?
17.9

---

- Target Or System: UniProtKB P09874
- Sequence (P09874 whole entry): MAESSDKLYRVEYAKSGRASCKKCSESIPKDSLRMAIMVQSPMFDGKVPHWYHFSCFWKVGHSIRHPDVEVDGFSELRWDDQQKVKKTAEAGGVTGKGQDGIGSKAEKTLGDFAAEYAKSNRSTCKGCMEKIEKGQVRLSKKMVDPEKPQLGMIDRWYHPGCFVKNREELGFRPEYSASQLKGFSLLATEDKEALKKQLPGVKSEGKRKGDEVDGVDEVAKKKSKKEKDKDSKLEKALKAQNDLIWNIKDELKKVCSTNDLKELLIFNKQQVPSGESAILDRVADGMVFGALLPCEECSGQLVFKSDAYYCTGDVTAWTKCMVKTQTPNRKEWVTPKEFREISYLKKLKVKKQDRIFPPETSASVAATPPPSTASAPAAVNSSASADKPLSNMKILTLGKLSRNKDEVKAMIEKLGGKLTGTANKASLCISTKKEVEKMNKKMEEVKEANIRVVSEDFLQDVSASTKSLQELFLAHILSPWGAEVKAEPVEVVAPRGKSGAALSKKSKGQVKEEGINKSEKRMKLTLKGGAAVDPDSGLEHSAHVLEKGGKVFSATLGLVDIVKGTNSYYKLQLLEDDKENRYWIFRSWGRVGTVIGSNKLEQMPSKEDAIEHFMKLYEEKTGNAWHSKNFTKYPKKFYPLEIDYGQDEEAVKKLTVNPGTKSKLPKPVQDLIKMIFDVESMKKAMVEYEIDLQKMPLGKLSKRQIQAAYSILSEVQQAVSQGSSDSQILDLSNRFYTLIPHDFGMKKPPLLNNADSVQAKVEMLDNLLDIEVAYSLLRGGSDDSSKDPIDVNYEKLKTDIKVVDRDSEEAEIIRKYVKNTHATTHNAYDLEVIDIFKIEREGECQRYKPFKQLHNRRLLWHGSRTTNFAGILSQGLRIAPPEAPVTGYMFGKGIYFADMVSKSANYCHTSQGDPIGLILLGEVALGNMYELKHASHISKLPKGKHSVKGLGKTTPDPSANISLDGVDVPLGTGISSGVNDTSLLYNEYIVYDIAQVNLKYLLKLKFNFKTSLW
- Run Description: Inhibition of human PARP1 using [3H]NAD as substrate after 1 min by microplate scintillation counting analysis
Measured Quantity: pIC50
Value format note: pIC50 is -log10 of concentration (mol/L); just state the number.

Compound	pIC50
O=c1[nH]nc2c3c(cccc13)NC(c1ccccn1)C2c1ccccn1 (centres undefined)	6.97
Cn1ccnc1[C@@H]1c2n[nH]c(=O)c3cc(F)cc(c23)N[C@H]1c1ccc(F)cc1	7.65
O=c1[nH]nc2c3c(cccc13)NC(c1ccc(CN3CCCC3)cc1)C2c1ccc(F)cc1 (centres undefined)	8.69
Cn1ccnc1C1c2n[nH]c(=O)c3cc(F)cc(c23)NC1c1ccc(F)cc1 (centres undefined)	8.73
Cn1ccnc1[C@H]1c2n[nH]c(=O)c3cccc(c23)N[C@@H]1c1ccc(F)cc1	8.65
Cn1ncnc1C1c2n[nH]c(=O)c3cccc(c23)NC1c1ccccc1 (centres undefined)	8.62
Cn1ccnc1[C@@H]1c2n[nH]c(=O)c3cccc(c23)N[C@H]1c1ccc(F)cc1	6.87
CN(C)Cc1ccc(C2Nc3cccc4c(=O)[nH]nc(c34)C2c2ccc(C(F)(F)F)cc2)cc1 (centres undefined)	8.20

Now look at this one.
API: value(readout= pIC50, system= UniProtKB P09874, query= Cc1ccc(C2c3n[nH]c(=O)c4cccc(c34)NC2c2ccc(CN(C)C)cc2)cc1 (centres undefined) )
8.71

---

- Run Description: Absolute oral bioavailability in beagle dog at 0.1 mg/kg
- Assay type: ADME, organism-based, Canis lupus familiaris
- Experimental Context: in vivo
Measured Quantity: bioavailability (%)
# output: bare number, implied unit %

Quick one: bioavailability of `Cn1ncnc1[C@H]1c2n[nH]c(=O)c3cc(F)cc(c23)N[C@@H]1c1ccc(F)cc1` ?
121

---

- Run Description: Cmax in beagle dog at 0.01 mg/kg, po
- Type: ADME, organism-based, Canis lupus familiaris
- Set-up: dose 0.01 mg/kg, route oral
- Experimental Context: in vivo
Measured Quantity: Cmax

Given Cc1ccc(S(=O)(=O)O)cc1.Cn1ncnc1[C@H]1c2n[nH]c(=O)c3cc(F)cc(c23)N[C@@H]1c1ccc(F)cc1 [TALAZOPARIB TOSYLATE] , state its recorded Cmax.
0.068 µg/mL

---

- Target Or System: CYP2D6 (Homo sapiens)
- Sequence (P10635 whole entry): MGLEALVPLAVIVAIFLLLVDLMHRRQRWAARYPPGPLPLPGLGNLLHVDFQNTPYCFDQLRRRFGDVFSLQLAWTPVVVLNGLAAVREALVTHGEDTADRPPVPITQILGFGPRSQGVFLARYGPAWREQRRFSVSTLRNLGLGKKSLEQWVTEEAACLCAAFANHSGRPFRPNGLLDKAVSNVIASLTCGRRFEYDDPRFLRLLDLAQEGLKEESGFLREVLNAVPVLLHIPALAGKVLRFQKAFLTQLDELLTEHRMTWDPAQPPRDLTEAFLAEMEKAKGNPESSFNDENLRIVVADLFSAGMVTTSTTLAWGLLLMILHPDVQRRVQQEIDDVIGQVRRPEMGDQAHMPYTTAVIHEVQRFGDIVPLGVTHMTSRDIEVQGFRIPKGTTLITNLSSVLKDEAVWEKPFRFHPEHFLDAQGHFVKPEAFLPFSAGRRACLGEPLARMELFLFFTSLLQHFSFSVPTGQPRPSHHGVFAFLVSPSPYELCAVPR
- Run Description: Inhibition of CYP2D6 (unknown origin) at 10 uM
- Type: ADME
Measured Quantity: inhibition at 10 µM

Query the reported inhibition at 10 µM for CYP2D6 (Homo sapiens); item: Cn1ncnc1[C@H]1c2n[nH]c(=O)c3cc(F)cc(c23)N[C@@H]1c1ccc(F)cc1 [TALAZOPARIB]
< 12%

---

- Run Description: AUC (0 to infinity) in beagle dog at 0.1 mg/kg, po
- Format: ADME, organism-based, Canis lupus familiaris
- Set-up: dose 0.1 mg/kg, route oral, time infinity
- Experimental Context: in vivo
Measured Quantity: AUC(0-inf) (ng·h/mL)
A number alone suffices; assume ng·h/mL.

Reported AUC(0-inf) for `Cn1ncnc1[C@H]1c2n[nH]c(=O)c3cc(F)cc(c23)N[C@@H]1c1ccc(F)cc1` : what is it?
629

---

- Run Description: Tmax in beagle dog at 0.1 mg/kg, po
- Type: ADME, organism-based, Canis lupus familiaris
- Experimental Context: in vivo
Measured Quantity: Tmax (h)
Give the value in h but do not write h after it.

Could you share which Tmax value was measured for `Cn1ncnc1[C@H]1c2n[nH]c(=O)c3cc(F)cc(c23)N[C@@H]1c1ccc(F)cc1` ?
2

---

- Run Description: AUC in Sprague-Dawley rat at 10 mg/kg, po by LC-MS/MS analysis
- Assay type: ADME, organism-based
- Experimental Context: Sprague-Dawley, in vivo
Rule: AUC below 40000 ng·h/mL gives true (1). Equal to or above 40000 ng·h/mL gives false (0).

O=C(c1cc(Cc2n[nH]c(=O)c3ccccc23)ccc1F)N1CCN(C(=O)C2CC2)CC1 true (1)
O=c1[nH]nc2c3c(cccc13)N[C@H](c1ccc(CN3CCC3)cc1)[C@H]2c1ccc(F)cc1 true (1)
Cn1ccnc1[C@H]1c2n[nH]c(=O)c3cccc(c23)N[C@@H]1c1ccc(F)cc1 true (1)

Now examine the next entry.
State whether 40000 ng·h/mL exceeds AUC recorded for `Cn1ncnc1[C@H]1c2n[nH]c(=O)c3cc(F)cc(c23)N[C@@H]1c1ccc(F)cc1` .
false (0)

---

# log10 of Vd per record follows
- Run Description: Volume of distribution at steady state in Sprague-Dawley rat at 5 mg/kg, iv by LC-MS/MS analysis
- Assay type: ADME, organism-based
- Experimental Context: in vivo, read-out: Vdss
Plainly stated, the numbers are log10 of Vd given in L/kg.

Solved entries:
Compound	Measured Quantity	Observed
O=C(c1cc(Cc2n[nH]c(=O)c3ccccc23)ccc1F)N1CCN(C(=O)C2CC2)CC1 [OLAPARIB]	log10 of Vd	-0.08
Cn1ccnc1[C@H]1c2n[nH]c(=O)c3cccc(c23)N[C@@H]1c1ccc(F)cc1	log10 of Vd	-0.30
O=c1[nH]nc2c3c(cccc13)N[C@H](c1ccc(CN3CCC3)cc1)[C@H]2c1ccc(F)cc1	log10 of Vd	0.65

What value of log10 of Vd has been reported for the following compound? `Cn1ccnc1[C@H]1c2n[nH]c(=O)c3cc(F)cc(c23)N[C@@H]1c1ccc(F)cc1`
-0.14

For the compound shown here, Cn1ncnc1[C@H]1c2n[nH]c(=O)c3cc(F)cc(c23)N[C@@H]1c1ccc(F)cc1 [TALAZOPARIB] , give the reported log10 of Vd.
-0.52

Fill in the blank: the reported log10 of Vd of `Cn1ncnc1[C@H]1c2n[nH]c(=O)c3cccc(c23)N[C@@H]1c1ccc(F)cc1` is ____.
-0.41

---

- Run Description: Half life in beagle dog at 0.01 mg/kg, po
- Type: ADME, organism-based, Canis lupus familiaris
- Experimental Context: in vivo
Measured Quantity: half-life

Give its half-life value. Item: Cc1ccc(S(=O)(=O)O)cc1.Cn1ncnc1[C@H]1c2n[nH]c(=O)c3cc(F)cc(c23)N[C@@H]1c1ccc(F)cc1 [TALAZOPARIB TOSYLATE]
24.4 h

---

- Run Description: Cmax in beagle dog at 0.1 mg/kg, po
- Type: ADME, organism-based, Canis lupus familiaris
- Design: dose 0.1 mg/kg, route oral
- Experimental Context: in vivo
Measured Quantity: Cmax (ng/mL)
Give just the number in ng/mL; leave the unit off.

I would be grateful if you could share the reported Cmax for `Cn1ncnc1[C@H]1c2n[nH]c(=O)c3cc(F)cc(c23)N[C@@H]1c1ccc(F)cc1` .
72.2

---

- Target Or System: CYP2C9 (Homo sapiens, UniProt P11712)
- Sequence (P11712 whole entry): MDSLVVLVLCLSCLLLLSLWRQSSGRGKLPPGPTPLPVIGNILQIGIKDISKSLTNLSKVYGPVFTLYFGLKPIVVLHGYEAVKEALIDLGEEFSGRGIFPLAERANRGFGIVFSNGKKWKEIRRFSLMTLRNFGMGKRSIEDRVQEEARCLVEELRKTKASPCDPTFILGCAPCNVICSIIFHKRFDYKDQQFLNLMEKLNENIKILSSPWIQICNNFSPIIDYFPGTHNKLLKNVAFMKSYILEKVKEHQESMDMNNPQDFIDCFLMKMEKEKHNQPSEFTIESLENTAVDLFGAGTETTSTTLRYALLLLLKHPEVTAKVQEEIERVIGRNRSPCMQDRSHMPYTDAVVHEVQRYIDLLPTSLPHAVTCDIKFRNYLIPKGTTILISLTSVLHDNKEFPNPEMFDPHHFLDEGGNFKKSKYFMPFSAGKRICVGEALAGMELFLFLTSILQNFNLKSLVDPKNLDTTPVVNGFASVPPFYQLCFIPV
- Run Description: Inhibition of CYP2C9 (unknown origin) at 10 uM
- Format: ADME
Measured Quantity: inhibition at 10 µM

I am curious: what inhibition at 10 µM value has been reported for Cn1ncnc1[C@H]1c2n[nH]c(=O)c3cc(F)cc(c23)N[C@@H]1c1ccc(F)cc1 [TALAZOPARIB] ?
< 12%

---

Recorded Cmax, one value per entry.
- Run Description: Cmax in Sprague-Dawley rat at 10 mg/kg, po by LC-MS/MS analysis
- Format: ADME, organism-based
- Design: dose 10 mg/kg, route oral
- Experimental Context: in vivo
A number alone suffices; assume ng/mL.

O=c1[nH]nc2c3c(cccc13)N[C@H](c1ccc(CN3CCC3)cc1)[C@H]2c1ccc(F)cc1 126
Cn1ncnc1[C@H]1c2n[nH]c(=O)c3cccc(c23)N[C@@H]1c1ccc(F)cc1 7770
Cn1ncnc1[C@H]1c2n[nH]c(=O)c3cc(F)cc(c23)N[C@@H]1c1ccc(F)cc1 7950
Cn1ccnc1[C@H]1c2n[nH]c(=O)c3cccc(c23)N[C@@H]1c1ccc(F)cc1 10500
O=C(c1cc(Cc2n[nH]c(=O)c3ccccc23)ccc1F)N1CCN(C(=O)C2CC2)CC1 437

API: the following record is the query input.
What does the data say about its Cmax? Entry: `Cn1ccnc1[C@H]1c2n[nH]c(=O)c3cc(F)cc(c23)N[C@@H]1c1ccc(F)cc1`
3990

---

- Run Description: Cmax in beagle dog at 0.025 mg/kg, iv
- Type: ADME, organism-based, Canis lupus familiaris
- Parameters: dose 0.025 mg/kg, route intravenous
- Experimental Context: in vivo
Measured Quantity: Cmax (ng/mL)
// return numeric value only (unit: ng/mL, not printed)

Cmax lookup needed for Cc1ccc(S(=O)(=O)O)cc1.Cn1ncnc1[C@H]1c2n[nH]c(=O)c3cc(F)cc(c23)N[C@@H]1c1ccc(F)cc1 [TALAZOPARIB TOSYLATE] , thanks.
18.9
